Values from PubChem BioAssay AID652054

Quick reference: max response, negative = inhibition of the listed items.
# STUDY_SYSTEM: D(3) dopamine receptor (Homo sapiens)
# PROCEDURE_TEXT: qHTS of D3 Dopamine Receptor Antagonist: qHTS; note: % is set by controls: 0 for no effect and ±100 for the full control effect
# MEASUREMENT_SETUP: D3R cells, DiscoveRx beta-arrestin luminescence, antagonist mode; hits give low values
Screen size: about 360,000 compounds; about 9,100 (2.5%) were called active. About 4% were inconclusive and are not listed. For the sample, actives were picked, then their nearest neighbours and some compounds at random.

COMPOUND | UNITS_OF_MEASURE | max response, negative = inhibition
COc1ccccc1CNc1nc(Nc2ccccc2Cl)c2sccc2n1 | % | 51.2
CCc1cccc(C)c1NC(=O)COC(=O)CNC(=O)c1cccs1 | % | 5.78
CCc1cccc(C)c1NC(=O)COC(=O)CC1CCCC1 | % | -10.7
Cc1cccc(NC(=O)c2cc(S(=O)(=O)N3CCC4(CC3)OCCO4)ccc2F)c1 | % | -11.3
COc1ccc(OC)c(C(=O)NC2CCCc3c2cnn3-c2cc(C)cc(C)c2)c1 (stereo not given) | % | 57.4
O=C(Nc1ccc(F)cc1F)N1CCCN(CCOc2ccccc2)CC1 | % | -70.2
CC(C)NC(=O)C1(C)CCCCN1Cc1cccc(C(F)(F)F)c1 (stereo not given) | % | 0
O=C(NCc1ccc2c(c1)OCO2)c1ccc(Cl)s1 | % | -10.3
COc1ccc(C(C(=O)Nc2c(C)cccc2C)N2CCN(c3ccc(C)cc3)CC2)cc1 (stereo not given) | % | 11.5
COc1cc(OC)cc(C2=Cc3ccccc3C(CC(=O)c3ccco3)N2c2ccc(-c3cnc(OC)nc3)cc2)c1 (stereo not given) | % | 41.4
CCC(CC)C(C(=O)NC1CCCC1)N1CCN(c2cc(C)nc3ccccc23)CC1 (stereo not given) | % | 14.1
Cc1cccc(-n2c(O)c(C=Nc3ccccc3N)c(=O)[nH]c2=O)c1 | % | -114
CC1(C(=O)NS(=O)(=O)c2cccc(F)c2)CCN1C(=O)Cc1ccc(Cl)cc1Cl (stereo not given) | % | -11
C#CCNC(=O)C[C@@H]1C[C@@]2(C(=O)OCC)CCCC=C2N(Cc2ccco2)C1=O | % | 5.5
CCOC(=O)[C@]12CCCC=C1N(CCC1=CCCCC1)C(=O)[C@H](CC(=O)N1CCOCC1)C2 | % | -20.5
CCCCC[C@H](C)N1C[C@@H](COCc2ccccc2)Oc2cc(N3CC[C@@H](N(C)C)C3)ccc2S1(=O)=O | % | 18.9
Cc1ccc(C(=O)OCC(=O)NCc2ccc3c(c2)OCO3)s1 | % | 5.99
CCn1c(COc2ccc(OC)cc2)nnc1SCC(=O)Nc1cc(OC)ccc1OC | % | 5.77
O=C(NCc1ccc2c(c1)OCO2)c1cc2c(s1)CS(=O)(=O)C2 | % | -163
CCCCc1nc2ccc(F)cc2cc1C | % | 20.6
O=C(NCc1ccc2c(c1)OCO2)c1sccc1Br | % | 10.4
O=C(N1CCOCC1)N1CCOCC1 | % | -50.3
Cc1nc(Nc2ccc3c(c2)OCCO3)c2nnn(Cc3ccccc3Cl)c2n1 | % | -26.4
Cc1ccc(C(=O)OCC(=O)NC2CCCCCCC2)cc1C | % | 5.37
COc1ccc(-c2c(C#N)cnc(C)c2C)c(O)c1OC | % | 9.2
